System: Daboia russelii russelii
Assay: Percent inhibition of hyaluronidase from Vipera russelli russelli venom
Set-up: concentration or dose not given beside the values
Conditions: concentration not given here
Listed next: entries and their corresponding inhibition.
endpoint-name: inhibition (%)

- Cc1cc(C(=O)c2cccc(Cl)c2Cl)ccc1OC(=O)c1ccccc1: 26.2
- Cc1ccc(OC(=O)c2cccc(Cl)c2)c(C(=O)c2cccc(Cl)c2)c1: 87.8
- Cc1ccc(C(=O)Oc2ccc(C)cc2C(=O)c2ccc(C)cc2)cc1: 46
- Cc1ccc(OC(=O)c2ccccc2)c(C(=O)c2ccccc2)c1: 28.2
- O=C(Oc1ccc(Cl)cc1C(=O)c1cccc(Cl)c1Cl)c1ccccc1: 71.6
- Cc1ccc(C(=O)Oc2ccc(C(=O)c3ccccc3C)cc2C)cc1: 36.9

====

Biological target: Basic phospholipase A2 PLA-A (Trimeresurus flavoviridis, UniProt P59264)
Sequence (P59264 whole entry): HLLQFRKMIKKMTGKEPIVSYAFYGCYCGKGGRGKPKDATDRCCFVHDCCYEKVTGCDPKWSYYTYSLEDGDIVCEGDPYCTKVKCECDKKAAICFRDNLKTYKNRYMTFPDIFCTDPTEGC
endpoint-name: IC50 (µM)

• Cc1cc(C(=O)c2cccc(Cl)c2Cl)ccc1OC(=O)c1ccccc1 = 89
• O=C(Oc1ccc(Cl)cc1C(=O)c1cccc(Cl)c1Cl)c1ccccc1 = 46
• Cc1ccc(C(=O)Oc2ccc(C(=O)c3ccccc3C)cc2C)cc1 = 75
• Cc1ccc(OC(=O)c2cccc(Cl)c2)c(C(=O)c2cccc(Cl)c2)c1 = 2.5
• Cc1ccc(OC(=O)c2ccccc2C)c(C(=O)c2ccccc2C)c1 = 139
• Cc1ccc(OC(=O)c2ccccc2)c(C(=O)c2ccccc2)c1 = 69
• Cc1ccc(C(=O)Oc2ccc(C)cc2C(=O)c2ccc(C)cc2)cc1 = 108

====

System: Protobothrops elegans
Experiment: Percent inhibition of hyaluronidase from Trimeresurus elegans venom
Design: concentration or dose not given beside the values
Settings: concentration not given here
endpoint-name: inhibition (%)

* Cc1ccc(C(=O)Oc2ccc(C)cc2C(=O)c2ccc(C)cc2)cc1 | 76.8
* O=C(Oc1ccc(Cl)cc1C(=O)c1cccc(Cl)c1Cl)c1ccccc1 | 76.8
* Cc1ccc(OC(=O)c2cccc(Cl)c2)c(C(=O)c2cccc(Cl)c2)c1 | 92.5
* Cc1ccc(C(=O)Oc2ccc(C(=O)c3ccccc3C)cc2C)cc1 | 48.9
* Cc1cc(C(=O)c2cccc(Cl)c2Cl)ccc1OC(=O)c1ccccc1 | 33.1
* Cc1ccc(OC(=O)c2ccccc2C)c(C(=O)c2ccccc2C)c1 | 42.4

====

Target: UniProt:P00599
Sequence (P00599 whole entry): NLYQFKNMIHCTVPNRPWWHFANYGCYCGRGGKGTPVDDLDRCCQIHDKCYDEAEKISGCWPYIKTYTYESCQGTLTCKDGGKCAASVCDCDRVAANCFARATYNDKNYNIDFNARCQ
# reported IC50; entries follow
endpoint-name: IC50 (µM)

* Cc1ccc(OC(=O)c2ccccc2C)c(C(=O)c2ccccc2C)c1 | 98
* Cc1ccc(C(=O)Oc2ccc(C)cc2C(=O)c2ccc(C)cc2)cc1 | 57
* Cc1cc(C(=O)c2cccc(Cl)c2Cl)ccc1OC(=O)c1ccccc1 | 132
* Cc1ccc(C(=O)Oc2ccc(C(=O)c3ccccc3C)cc2C)cc1 | 73
* Cc1ccc(OC(=O)c2ccccc2)c(C(=O)c2ccccc2)c1 | 60
* Cc1ccc(OC(=O)c2cccc(Cl)c2)c(C(=O)c2cccc(Cl)c2)c1 | 2.9
* O=C(Oc1ccc(Cl)cc1C(=O)c1cccc(Cl)c1Cl)c1ccccc1 | 53
* C[C@H]1[C@H](C)CC[C@]2(C(=O)O)CC[C@]3(C)C(=CC[C@@H]4[C@@]5(C)CC[C@H](O)C(C)(C)[C@@H]5CC[C@]43C)[C@H]12 | 2.9
